Test system: P2X7 receptor (Homo sapiens, UniProt Q99572)
Construct: host or cells: THP-1 cells differentiated with LPS and IFN-γ
Sequence (Q99572 1-595): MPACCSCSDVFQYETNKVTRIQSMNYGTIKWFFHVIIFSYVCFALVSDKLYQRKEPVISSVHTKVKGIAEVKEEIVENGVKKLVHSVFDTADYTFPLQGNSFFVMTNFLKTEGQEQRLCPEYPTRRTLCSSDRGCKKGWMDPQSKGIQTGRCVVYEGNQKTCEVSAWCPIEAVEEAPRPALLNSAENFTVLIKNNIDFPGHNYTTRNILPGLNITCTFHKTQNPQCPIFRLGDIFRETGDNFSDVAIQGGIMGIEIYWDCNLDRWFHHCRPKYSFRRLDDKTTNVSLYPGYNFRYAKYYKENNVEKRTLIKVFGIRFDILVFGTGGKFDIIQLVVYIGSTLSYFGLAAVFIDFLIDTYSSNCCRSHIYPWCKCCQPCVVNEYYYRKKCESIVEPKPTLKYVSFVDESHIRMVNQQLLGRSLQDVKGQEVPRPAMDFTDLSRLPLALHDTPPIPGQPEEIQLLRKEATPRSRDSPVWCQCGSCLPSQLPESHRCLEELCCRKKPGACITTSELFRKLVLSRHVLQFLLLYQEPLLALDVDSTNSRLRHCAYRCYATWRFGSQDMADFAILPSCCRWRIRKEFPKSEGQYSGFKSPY
Assay protocol: Alternate method for IL-1β release assay (differentiated THP-1 cells, BzATP-stimulated, ELISA)
Assay type: cell-based
Setup conditions: P2X7; 0.3 μM compound (symbols * to ****); read-out: IL-1β % inhib @ 0.3 μM
Method: Alternate Method for IL-1β Release Assay THP-1 cells (ATCC Cat #285-IF-100) are plated in 96 well plates at a concentration of 200,000 cells per well and allowed to differentiate in RPMI-1640 media (ATCC Cat #30-2001) containing 10% FBS, 100 IU/mL penicillin, 100 ug/mL streptomycin, 100 ng/mL LPS and 100 ng/mL IFN-γ for 16 hours. […]
Measured quantity: inhibition at 0.3 µM

// query Lab note: P2X7 receptor (Homo sapiens, UniProt Q99572) assay, enter inhibition at 0.3 µM for CN(CC(=O)N1CCc2c(ncnc2NCC2C3CC4CC(C3)CC2C4)C1)Cc1ccc(F)cc1 (stereo not shown) here
// result 0 to 25%

// query System P2X7 receptor (Homo sapiens, UniProt Q99572). Read-out inhibition at 0.3 µM. Item CN(CC(=O)N1CCc2c(ncnc2NCC2C3CC4CC(C3)CC2C4)C1)Cc1ccco1 (stereo not shown) . Report value.
// result 0 to 25%

// query GET inhibition at 0.3 µM where system = P2X7 receptor (Homo sapiens, UniProt Q99572) and item = CN(CCc1ccccc1)CC(=O)N1CCc2c(ncnc2NCC2C3CC4CC(C3)CC2C4)C1 (stereo not shown)
// result > 75%

// query For P2X7 receptor (Homo sapiens, UniProt Q99572), give the measured inhibition at 0.3 µM of the entry CN(CCc1ccccn1)CC(=O)N1CCc2c(ncnc2NCC2C3CC4CC(C3)CC2C4)C1 (stereo not shown)
// result 50 to 75%

// query // fetch inhibition at 0.3 µM; item: `c1nc2c(c(NCC34CC5CC(CC(C5)C3)C4)n1)CCN(CC1CCCC1)C2` ; system: P2X7 receptor (Homo sapiens, UniProt Q99572)
// result > 75%

// query Look up and report inhibition at 0.3 µM, with P2X7 receptor (Homo sapiens, UniProt Q99572) as system, for CCN(CC(=O)N1CCc2c(ncnc2NCC2C3CC4CC(C3)CC2C4)C1)Cc1ccncc1 (stereo not shown)
// result 50 to 75%

// query Provide inhibition at 0.3 µM, recorded with P2X7 receptor (Homo sapiens, UniProt Q99572), of `COc1cc(CN2CCc3c(ncnc3NCC34CC5CC(CC(C5)C3)C4)C2)cc(Br)c1OC`
// result 0 to 25%

// query State inhibition at 0.3 µM on P2X7 receptor (Homo sapiens, UniProt Q99572). Entry: `Fc1cccc(CN2CCc3c(ncnc3NCC34CC5CC(CC(C5)C3)C4)C2)c1`
// result > 75%

// query Write inhibition at 0.3 µM of `COc1cc(CN2CCc3c(ncnc3NCC34CC5CC(CC(C5)C3)C4)C2)cc(OC)c1` ; system used: P2X7 receptor (Homo sapiens, UniProt Q99572)
// result > 75%

// query GET inhibition at 0.3 µM | system: P2X7 receptor (Homo sapiens, UniProt Q99572) | item: CCN(C)CC(=O)N1CCc2c(ncnc2NCC2C3CC4CC(C3)CC2C4)C1 (stereo not shown)
// result 0 to 25%

// query Quote P2X7 receptor (Homo sapiens, UniProt Q99572) inhibition at 0.3 µM for entry `COc1cc(F)c(CN2CCc3c(ncnc3NCC34CC5CC(CC(C5)C3)C4)C2)cc1OC` .
// result 0 to 25%

// query Fetch value of inhibition at 0.3 µM on P2X7 receptor (Homo sapiens, UniProt Q99572) for COc1ccc(CCN(C)CC(=O)N2CCc3c(ncnc3NCC3C4CC5CC(C4)CC3C5)C2)cc1OC (stereo not shown) .
// result 0 to 25%

// query State, for P2X7 receptor (Homo sapiens, UniProt Q99572), measured inhibition at 0.3 µM of the compound listed here: `Fc1ccc(COc2ccc(CN3CCc4c(ncnc4NCC45CC6CC(CC(C6)C4)C5)C3)cc2)cc1`
// result 0 to 25%

// query Name the value of inhibition at 0.3 µM reported for `COc1ccc(CN2CCc3c(ncnc3NCC34CC5CC(CC(C5)C3)C4)C2)cc1O` when tested on P2X7 receptor (Homo sapiens, UniProt Q99572).
// result 0 to 25%

// query # lookup: P2X7 receptor (Homo sapiens, UniProt Q99572) inhibition at 0.3 µM, key = `COc1ccc(CN2CCc3c(ncnc3NCC34CC5CC(CC(C5)C3)C4)C2)cc1OCc1ccccc1`
// result 0 to 25%

// query System P2X7 receptor (Homo sapiens, UniProt Q99572). Read-out inhibition at 0.3 µM. Item `CN(C)CCN1CCN(CC(=O)N2CCc3c(ncnc3NCC34CC5CC(CC(C5)C3)C4)C2)CC1` . Report value.
// result 0 to 25%

// query Please report inhibition at 0.3 µM with P2X7 receptor (Homo sapiens, UniProt Q99572) for item `COc1ccc(F)c(CN2CCc3c(ncnc3NCC34CC5CC(CC(C5)C3)C4)C2)c1` .
// result 0 to 25%

// query Quote inhibition at 0.3 µM with test system P2X7 receptor (Homo sapiens, UniProt Q99572) for `Clc1cc2c(cc1CN1CCc3c(ncnc3NCC34CC5CC(CC(C5)C3)C4)C1)OCO2`
// result 0 to 25%

// query Print P2X7 receptor (Homo sapiens, UniProt Q99572) inhibition at 0.3 µM for `O=C(CN1CCC(Cc2ccccc2)CC1)N1CCc2c(ncnc2NCC23CC4CC(CC(C4)C2)C3)C1` .
// result 25 to 50%

---

Test system: P2X7 receptor (Homo sapiens)
Construct: host or cells: THP-1 cells differentiated with LPS and IFN-γ
Assay protocol: Alternate method for IL-1β release assay (differentiated THP-1 cells, BzATP-stimulated, ELISA)
Format: cell-based
Setup conditions: P2X7; 0.3 μM compound (asterisk symbols); read-out: IL-1β % inhib @ 0.3 μM
Measured quantity: inhibition at 0.3 µM

// query Please look at this molecule and report its inhibition at 0.3 µM: `O=S(=O)(Cc1ccc(F)cc1)N1CCc2c(ncnc2NCC23CC4CC(CC(C4)C2)C3)C1`
// result 0 to 25%

// query Specify inhibition at 0.3 µM for `O=C(Cc1ccccc1)N1CCc2c(ncnc2NCC23CC4CC(CC(C4)C2)C3)C1` and stop.
// result 50 to 75%

// query Output measured inhibition at 0.3 µM for this item: `O=S(=O)(Cc1cccc(C(F)(F)F)c1)N1CCc2c(ncnc2NCC23CC4CC(CC(C4)C2)C3)C1`
// result 25 to 50%

// query Quote inhibition at 0.3 µM reported for `N#Cc1ccccc1S(=O)(=O)N1CCc2c(ncnc2NCC23CC4CC(CC(C4)C2)C3)C1` please.
// result 25 to 50%

// query Fill in reported inhibition at 0.3 µM for this entry: `COc1ccc(CN2CCc3c(ncnc3NCC34CC5CC(CC(C5)C3)C4)C2)c(Cl)c1OC`
// result 0 to 25%

// query Return inhibition at 0.3 µM for the following molecule: `O=S(=O)(c1ccc(-n2cccn2)cc1)N1CCc2c(ncnc2NCC23CC4CC(CC(C4)C2)C3)C1`
// result 0 to 25%

// query For the molecule `O=S(=O)(c1c(F)cccc1F)N1CCc2c(ncnc2NCC23CC4CC(CC(C4)C2)C3)C1` , give its reported inhibition at 0.3 µM.
// result > 75%

// query Please list inhibition at 0.3 µM recorded for the molecule `COc1cccc(CC(=O)N2CCc3c(ncnc3NCC34CC5CC(CC(C5)C3)C4)C2)c1`
// result 25 to 50%

// query Name the recorded inhibition at 0.3 µM of the molecule listed here: `c1nc2c(c(NCC34CC5CC(CC(C5)C3)C4)n1)CCN(CC1CC1)C2`
// result 0 to 25%

// query Output measured inhibition at 0.3 µM for this item: `O=C(c1ccc2ccccc2n1)N1CCc2c(ncnc2NCC23CC4CC(CC(C4)C2)C3)C1`
// result 25 to 50%

// query // fetch inhibition at 0.3 µM given entry `Cc1ccc2occ(CN3CCc4c(ncnc4NCC45CC6CC(CC(C6)C4)C5)C3)c(=O)c2c1`
// result 25 to 50%

// query Supply inhibition at 0.3 µM value. Item: `c1ccc(C(CN2CCc3c(ncnc3NCC34CC5CC(CC(C5)C3)C4)C2)c2ccccc2)cc1`
// result > 75%

// query Name the recorded inhibition at 0.3 µM of the molecule listed here: `CCCN1CCc2c(ncnc2NCC23CC4CC(CC(C4)C2)C3)C1`
// result 0 to 25%

// query Give recorded inhibition at 0.3 µM. `O=S(=O)(c1ccc(Oc2ccccn2)cc1)N1CCc2c(ncnc2NCC23CC4CC(CC(C4)C2)C3)C1`
// result > 75%

// query Give inhibition at 0.3 µM for `COc1ccc(OC)c(S(=O)(=O)N2CCc3c(ncnc3NCC34CC5CC(CC(C5)C3)C4)C2)c1`
// result 25 to 50%

// query Please look at this molecule and report its inhibition at 0.3 µM: `Cc1nn(-c2ccccc2)nc1C(=O)N1CCc2c(ncnc2NCC23CC4CC(CC(C4)C2)C3)C1`
// result > 75%

// query Identify the reported inhibition at 0.3 µM for the following entry. `O=S(=O)(c1cc(Cl)ccc1Cl)N1CCc2c(ncnc2NCC23CC4CC(CC(C4)C2)C3)C1`
// result 50 to 75%

// query Entry `COc1ccc(S(=O)(=O)N2CCc3c(ncnc3NCC34CC5CC(CC(C5)C3)C4)C2)c(OC)c1` needs its inhibition at 0.3 µM filled in; supply it.
// result 50 to 75%
